# Assayed Target: p38 MAPK (Homo sapiens)
# Sequence (Q15759 whole entry): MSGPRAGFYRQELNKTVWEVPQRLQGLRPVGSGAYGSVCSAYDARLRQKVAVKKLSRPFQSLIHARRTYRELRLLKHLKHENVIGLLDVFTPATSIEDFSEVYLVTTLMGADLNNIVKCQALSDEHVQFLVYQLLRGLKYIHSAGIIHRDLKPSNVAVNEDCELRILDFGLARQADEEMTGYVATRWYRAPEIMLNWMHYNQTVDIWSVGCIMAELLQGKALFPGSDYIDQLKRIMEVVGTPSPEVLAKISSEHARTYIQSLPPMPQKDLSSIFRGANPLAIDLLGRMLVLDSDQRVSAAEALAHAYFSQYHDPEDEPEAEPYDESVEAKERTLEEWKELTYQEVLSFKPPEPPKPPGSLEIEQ
# Method Description: Kinase profiling (radiometric filter-binding)
# Type: biochemical
# Measurement Parameters: second of four lines (Greek letter lost), 1 µM inhibitor, read-out: Residual activity, %
Square brackets hold non-standard residues; d marks the D form. Peptide text beside a SMILES is read from it. * marks the point of attachment. X3 = O=C(CCCCCNCc1nc2c(sc3cc(Br)cnc32)c(=O)[nH]1)*
Please go through the items and note down their remaining activity at 1 µM.
Could you give me the number in %? Just the number is fine.

N=C(N)NCCC[C@@H](NC(=O)CNC(=O)[C@@H](CCCNC(=N)N)NC(=O)[C@@H](CCCNC(=N)N)NC(=O)Cn1cc(CNCc2nc3c(sc4ccc(Br)cc43)c(=O)[nH]2)nn1)C(=O)N[C@H](CCCCN)C(N)=O on p38 MAPK (Homo sapiens) gives remaining activity at 1 µM = 100

N=C(N)NCCC[C@@H](NC(=O)CNC(=O)[C@@H](CCCNC(=N)N)NC(=O)[C@@H](CCCNC(=N)N)NC(=O)CCCCCCCNCc1nc2c(sc3ccc(Br)cc32)c(=O)[nH]1)C(=O)N[C@H](CCCCN)C(N)=O on p38 MAPK (Homo sapiens) gives remaining activity at 1 µM = 113

N=C(N)NCCC[C@@H](NC(=O)CCCCCNC(=O)Cn1cnc2c(I)c(I)c(I)c(I)c21)C(=O)N[C@H](CCCNC(=N)N)C(=O)N[C@H](CCCNC(=N)N)C(=O)N[C@H](CCCNC(=N)N)C(=O)N[C@H](CCCNC(=N)N)C(=O)N[C@H](CCCNC(=N)N)C(=O)N[C@H](CCCCN)C(N)=O on p38 MAPK (Homo sapiens) gives remaining activity at 1 µM = 80

N=C(N)NCCC[C@@H](NC(=O)CCCCCNCc1nc2c(sc3cc(Br)cnc32)c(=O)[nH]1)C(=O)N[C@H](CCCNC(=N)N)C(=O)N[C@H](CCCNC(=N)N)C(=O)N[C@H](CCCNC(=N)N)C(=O)N[C@H](CCCNC(=N)N)C(=O)N[C@H](CCCNC(=N)N)C(=O)N[C@H](CCCCN)C(N)=O [ARC-3126, BPTP-Ahx-(D-Arg)6-D-Lys-NH2] (X3-[dR][dR][dR][dR][dR][dR][dK]-NH2) on p38 MAPK (Homo sapiens) gives remaining activity at 1 µM = 94

N=C(N)NCCC[C@@H](NC(=O)CNC(=O)[C@@H](CCCNC(=N)N)NC(=O)[C@@H](CCCNC(=N)N)NC(=O)CCCCCCCNCc1nc2c(sc3cc(Br)cnc32)c(=O)[nH]1)C(=O)N[C@H](CCCCN)C(N)=O on p38 MAPK (Homo sapiens) gives remaining activity at 1 µM = 108

* * *

# Assayed Target: MAPKAP-K3 (Homo sapiens, UniProt Q16644)
# Sequence (Q16644 whole entry): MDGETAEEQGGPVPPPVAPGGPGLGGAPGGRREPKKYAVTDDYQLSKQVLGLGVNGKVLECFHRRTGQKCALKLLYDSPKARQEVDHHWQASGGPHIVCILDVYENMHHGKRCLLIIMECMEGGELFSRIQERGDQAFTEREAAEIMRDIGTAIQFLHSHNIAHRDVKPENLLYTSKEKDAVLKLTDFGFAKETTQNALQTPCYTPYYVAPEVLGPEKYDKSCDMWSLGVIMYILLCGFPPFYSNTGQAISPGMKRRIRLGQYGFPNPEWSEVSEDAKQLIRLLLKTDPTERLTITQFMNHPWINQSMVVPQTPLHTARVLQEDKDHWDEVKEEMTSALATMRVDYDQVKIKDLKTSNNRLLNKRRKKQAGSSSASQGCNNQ
# Method Description: Kinase profiling (radiometric filter-binding)
# Type: biochemical
# Measurement Parameters: MAPKAP-K3, 1 µM inhibitor; read-out: Residual activity, %
Square brackets hold non-standard residues; d marks the D form. Peptide text beside a SMILES is read from it. * marks the point of attachment. X3 = O=C(CCCCCNCc1nc2c(sc3cc(Br)cnc32)c(=O)[nH]1)*
Please go through the items and note down their remaining activity at 1 µM.
# output: number + unit

Reported remaining activity at 1 µM for N=C(N)NCCC[C@@H](NC(=O)CCCCCNC(=O)Cn1cnc2c(I)c(I)c(I)c(I)c21)C(=O)N[C@H](CCCNC(=N)N)C(=O)N[C@H](CCCNC(=N)N)C(=O)N[C@H](CCCNC(=N)N)C(=O)N[C@H](CCCNC(=N)N)C(=O)N[C@H](CCCNC(=N)N)C(=O)N[C@H](CCCCN)C(N)=O [ARC-3125, TIBI-CH2-C(=O)-Ahx-(D-Arg)6-D-Lys-NH2] was 48%

Reported remaining activity at 1 µM for N=C(N)NCCC[C@@H](NC(=O)CNC(=O)[C@@H](CCCNC(=N)N)NC(=O)[C@@H](CCCNC(=N)N)NC(=O)CCCCCCCNCc1nc2c(sc3ccc(Br)cc32)c(=O)[nH]1)C(=O)N[C@H](CCCCN)C(N)=O [Compound 2, BBTP-Aoc-(D-Arg)2-Gly-D-Arg-D-Lys-NH2] was 110%

Reported remaining activity at 1 µM for N=C(N)NCCC[C@@H](NC(=O)CNC(=O)[C@@H](CCCNC(=N)N)NC(=O)[C@@H](CCCNC(=N)N)NC(=O)CCCCCCCNCc1nc2c(sc3cc(Br)cnc32)c(=O)[nH]1)C(=O)N[C@H](CCCCN)C(N)=O [Compound 1, BPTP-Aoc-(D-Arg)2-Gly-D-Arg-D-Lys-NH2] was 111%

Reported remaining activity at 1 µM for N=C(N)NCCC[C@@H](NC(=O)CNC(=O)[C@@H](CCCNC(=N)N)NC(=O)[C@@H](CCCNC(=N)N)NC(=O)Cn1cc(CNCc2nc3c(sc4ccc(Br)cc43)c(=O)[nH]2)nn1)C(=O)N[C@H](CCCCN)C(N)=O [Compound 3, BBTP-Amt-(D-Arg)2-Gly-D-Arg-D-Lys-NH2] was 85%

Reported remaining activity at 1 µM for N=C(N)NCCC[C@@H](NC(=O)CCCCCNCc1nc2c(sc3cc(Br)cnc32)c(=O)[nH]1)C(=O)N[C@H](CCCNC(=N)N)C(=O)N[C@H](CCCNC(=N)N)C(=O)N[C@H](CCCNC(=N)N)C(=O)N[C@H](CCCNC(=N)N)C(=O)N[C@H](CCCNC(=N)N)C(=O)N[C@H](CCCCN)C(N)=O [ARC-3126, BPTP-Ahx-(D-Arg)6-D-Lys-NH2] (X3-[dR][dR][dR][dR][dR][dR][dK]-NH2) was 43%

* * *

# Assayed Target: SIK3 (Homo sapiens, UniProt Q9Y2K2)
# Sequence (Q9Y2K2 whole entry): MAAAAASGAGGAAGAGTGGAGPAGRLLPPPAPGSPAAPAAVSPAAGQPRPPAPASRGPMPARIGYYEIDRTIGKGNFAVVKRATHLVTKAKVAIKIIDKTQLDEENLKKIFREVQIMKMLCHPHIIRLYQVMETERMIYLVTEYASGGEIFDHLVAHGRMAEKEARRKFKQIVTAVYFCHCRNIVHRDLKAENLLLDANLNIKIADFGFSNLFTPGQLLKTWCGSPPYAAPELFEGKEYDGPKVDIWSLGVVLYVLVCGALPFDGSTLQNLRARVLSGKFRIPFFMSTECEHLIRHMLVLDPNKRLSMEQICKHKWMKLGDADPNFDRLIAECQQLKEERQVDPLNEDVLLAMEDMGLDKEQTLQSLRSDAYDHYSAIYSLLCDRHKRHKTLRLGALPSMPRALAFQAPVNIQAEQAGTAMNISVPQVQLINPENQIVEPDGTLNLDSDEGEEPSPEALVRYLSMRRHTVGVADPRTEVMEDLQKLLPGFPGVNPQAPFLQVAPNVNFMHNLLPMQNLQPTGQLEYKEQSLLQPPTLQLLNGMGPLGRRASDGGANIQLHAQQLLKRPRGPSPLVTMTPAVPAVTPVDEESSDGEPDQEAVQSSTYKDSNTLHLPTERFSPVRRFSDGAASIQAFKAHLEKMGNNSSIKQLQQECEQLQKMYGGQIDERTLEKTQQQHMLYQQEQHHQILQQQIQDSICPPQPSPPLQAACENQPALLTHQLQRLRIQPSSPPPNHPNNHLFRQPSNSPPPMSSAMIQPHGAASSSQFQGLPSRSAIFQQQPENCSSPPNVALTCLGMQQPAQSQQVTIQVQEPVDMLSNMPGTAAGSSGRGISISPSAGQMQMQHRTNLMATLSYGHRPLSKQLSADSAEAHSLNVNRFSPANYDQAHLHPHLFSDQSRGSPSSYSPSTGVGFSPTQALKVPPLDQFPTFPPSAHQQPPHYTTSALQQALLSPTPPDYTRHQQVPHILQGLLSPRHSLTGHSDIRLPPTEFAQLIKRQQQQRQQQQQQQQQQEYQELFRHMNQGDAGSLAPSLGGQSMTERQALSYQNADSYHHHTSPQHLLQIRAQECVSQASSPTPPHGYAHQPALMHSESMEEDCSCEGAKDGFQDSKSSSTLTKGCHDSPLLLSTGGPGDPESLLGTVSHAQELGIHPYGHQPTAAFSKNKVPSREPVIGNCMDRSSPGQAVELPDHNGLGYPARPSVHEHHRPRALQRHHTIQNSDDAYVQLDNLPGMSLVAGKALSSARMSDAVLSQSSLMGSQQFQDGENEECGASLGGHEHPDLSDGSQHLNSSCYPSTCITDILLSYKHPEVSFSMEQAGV
# Method Description: Kinase profiling (radiometric filter-binding)
# Assay type: biochemical
# Measurement Parameters: SIK3, 1 µM inhibitor; read-out: Residual activity, %
Square brackets hold non-standard residues; d marks the D form. Peptide text beside a SMILES is read from it. * marks the point of attachment. X3 = O=C(CCCCCNCc1nc2c(sc3cc(Br)cnc32)c(=O)[nH]1)*
Observable: remaining activity at 1 µM (%)
Could you give me the number in %? Just the number is fine.

Reported remaining activity at 1 µM for N=C(N)NCCC[C@@H](NC(=O)CCCCCNCc1nc2c(sc3cc(Br)cnc32)c(=O)[nH]1)C(=O)N[C@H](CCCNC(=N)N)C(=O)N[C@H](CCCNC(=N)N)C(=O)N[C@H](CCCNC(=N)N)C(=O)N[C@H](CCCNC(=N)N)C(=O)N[C@H](CCCNC(=N)N)C(=O)N[C@H](CCCCN)C(N)=O [ARC-3126, BPTP-Ahx-(D-Arg)6-D-Lys-NH2] (X3-[dR][dR][dR][dR][dR][dR][dK]-NH2) was 117

Reported remaining activity at 1 µM for N=C(N)NCCC[C@@H](NC(=O)CNC(=O)[C@@H](CCCNC(=N)N)NC(=O)[C@@H](CCCNC(=N)N)NC(=O)CCCCCCCNCc1nc2c(sc3ccc(Br)cc32)c(=O)[nH]1)C(=O)N[C@H](CCCCN)C(N)=O was 97

Reported remaining activity at 1 µM for N=C(N)NCCC[C@@H](NC(=O)CNC(=O)[C@@H](CCCNC(=N)N)NC(=O)[C@@H](CCCNC(=N)N)NC(=O)Cn1cc(CNCc2nc3c(sc4ccc(Br)cc43)c(=O)[nH]2)nn1)C(=O)N[C@H](CCCCN)C(N)=O was 66

Reported remaining activity at 1 µM for N=C(N)NCCC[C@@H](NC(=O)CCCCCNC(=O)Cn1cnc2c(I)c(I)c(I)c(I)c21)C(=O)N[C@H](CCCNC(=N)N)C(=O)N[C@H](CCCNC(=N)N)C(=O)N[C@H](CCCNC(=N)N)C(=O)N[C@H](CCCNC(=N)N)C(=O)N[C@H](CCCNC(=N)N)C(=O)N[C@H](CCCCN)C(N)=O was 89

Reported remaining activity at 1 µM for N=C(N)NCCC[C@@H](NC(=O)CNC(=O)[C@@H](CCCNC(=N)N)NC(=O)[C@@H](CCCNC(=N)N)NC(=O)CCCCCCCNCc1nc2c(sc3cc(Br)cnc32)c(=O)[nH]1)C(=O)N[C@H](CCCCN)C(N)=O was 106

* * *

# Assayed Target: TESK1 (Homo sapiens, UniProt Q15569)
# Sequence (Q15569 whole entry): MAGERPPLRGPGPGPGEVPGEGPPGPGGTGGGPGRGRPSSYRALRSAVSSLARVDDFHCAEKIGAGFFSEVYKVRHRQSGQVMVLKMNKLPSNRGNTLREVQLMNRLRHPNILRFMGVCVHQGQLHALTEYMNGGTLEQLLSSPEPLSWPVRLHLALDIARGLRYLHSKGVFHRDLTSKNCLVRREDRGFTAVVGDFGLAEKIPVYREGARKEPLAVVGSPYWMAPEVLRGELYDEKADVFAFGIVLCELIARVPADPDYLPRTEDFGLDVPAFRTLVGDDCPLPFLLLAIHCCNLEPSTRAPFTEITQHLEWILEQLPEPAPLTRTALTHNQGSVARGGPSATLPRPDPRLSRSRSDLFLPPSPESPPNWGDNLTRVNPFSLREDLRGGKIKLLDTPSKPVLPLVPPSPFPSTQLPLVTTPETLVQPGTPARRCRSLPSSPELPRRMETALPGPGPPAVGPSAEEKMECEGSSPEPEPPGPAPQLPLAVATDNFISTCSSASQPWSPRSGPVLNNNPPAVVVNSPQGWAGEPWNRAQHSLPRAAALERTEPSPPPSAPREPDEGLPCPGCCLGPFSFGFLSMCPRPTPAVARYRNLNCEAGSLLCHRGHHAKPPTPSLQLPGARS
# Method Description: Kinase profiling (radiometric filter-binding)
# Assay type: biochemical
# Measurement Parameters: TESK1, 1 µM inhibitor; read-out: Residual activity, %
# Protocol: Kinase selectivity profiling was performed using the commercial service provided by the MRC PPU International Centre for Kinase Profiling (Dundee, UK) using a radiometric filter-binding assay. Kinases used for analysis were of human origin. The ATP concentration applied for inhibition measurements was at or below the ATP KM value of the particular PK. […] Residual activities were expressed as the percentage of retained activity compared to the control without inhibitor.
Square brackets hold non-standard residues; d marks the D form. Peptide text beside a SMILES is read from it. * marks the point of attachment. X3 = O=C(CCCCCNCc1nc2c(sc3cc(Br)cnc32)c(=O)[nH]1)*
Please go through the items and note down their remaining activity at 1 µM.
Could you give me the number in %? Just the number is fine.

Reported remaining activity at 1 µM for N=C(N)NCCC[C@@H](NC(=O)CCCCCNC(=O)Cn1cnc2c(I)c(I)c(I)c(I)c21)C(=O)N[C@H](CCCNC(=N)N)C(=O)N[C@H](CCCNC(=N)N)C(=O)N[C@H](CCCNC(=N)N)C(=O)N[C@H](CCCNC(=N)N)C(=O)N[C@H](CCCNC(=N)N)C(=O)N[C@H](CCCCN)C(N)=O was 102

Reported remaining activity at 1 µM for N=C(N)NCCC[C@@H](NC(=O)CNC(=O)[C@@H](CCCNC(=N)N)NC(=O)[C@@H](CCCNC(=N)N)NC(=O)CCCCCCCNCc1nc2c(sc3ccc(Br)cc32)c(=O)[nH]1)C(=O)N[C@H](CCCCN)C(N)=O was 106

Reported remaining activity at 1 µM for N=C(N)NCCC[C@@H](NC(=O)CCCCCNCc1nc2c(sc3cc(Br)cnc32)c(=O)[nH]1)C(=O)N[C@H](CCCNC(=N)N)C(=O)N[C@H](CCCNC(=N)N)C(=O)N[C@H](CCCNC(=N)N)C(=O)N[C@H](CCCNC(=N)N)C(=O)N[C@H](CCCNC(=N)N)C(=O)N[C@H](CCCCN)C(N)=O [ARC-3126, BPTP-Ahx-(D-Arg)6-D-Lys-NH2] (X3-[dR][dR][dR][dR][dR][dR][dK]-NH2) was 99

Reported remaining activity at 1 µM for N=C(N)NCCC[C@@H](NC(=O)CNC(=O)[C@@H](CCCNC(=N)N)NC(=O)[C@@H](CCCNC(=N)N)NC(=O)Cn1cc(CNCc2nc3c(sc4ccc(Br)cc43)c(=O)[nH]2)nn1)C(=O)N[C@H](CCCCN)C(N)=O was 105

Reported remaining activity at 1 µM for N=C(N)NCCC[C@@H](NC(=O)CNC(=O)[C@@H](CCCNC(=N)N)NC(=O)[C@@H](CCCNC(=N)N)NC(=O)CCCCCCCNCc1nc2c(sc3cc(Br)cnc32)c(=O)[nH]1)C(=O)N[C@H](CCCCN)C(N)=O was 111
